From: the supplement of paper PMC4466140

Target: CaSla1-D1-D2
Assay: SPOT peptide array binding signal intensity (averaged, normalized) (arbitrary units (background-subtracted, floor 0; scale differs between SH3 domains)); higher = stronger binding of the SH3 domain to the peptide
Quick reference for SPOT peptide array binding signal intensity among some binders

Below, 8 binders whose answers are already recorded.
For PHNPSPFFPPPDFND the binder record lists SPOT peptide array binding signal intensity as ≤ 0

For TTAPALPSLPPPPLL the binder record lists SPOT peptide array binding signal intensity as ≤ 0

For PPPPPPPPPPLPQSL the binder record lists SPOT peptide array binding signal intensity as ≤ 0

For NAGIRPKFILALNDE the binder record lists SPOT peptide array binding signal intensity as ≤ 0

For NFKRLLPRDPSEKSS the binder record lists SPOT peptide array binding signal intensity as ≤ 0

For KTRLRPAFIQQLWSS the binder record lists SPOT peptide array binding signal intensity as ≤ 0

For APKHAPPPVPNETDN the binder record lists SPOT peptide array binding signal intensity as ≤ 0

For KTITLEVESSDTIDN the binder record lists SPOT peptide array binding signal intensity as ≤ 0

New cases:
For VAPPPLPNRQLPNLD the binder record lists SPOT peptide array binding signal intensity as ≤ 0

For SRYRRPLTLLLLKPF the binder record lists SPOT peptide array binding signal intensity as ≤ 0

For YVRRRPRVRLEPLLS the binder record lists SPOT peptide array binding signal intensity as 114

For RKRAPTPPAPSRSEK the binder record lists SPOT peptide array binding signal intensity as 1150

For TPRLSLPRLPNKHHW the binder record lists SPOT peptide array binding signal intensity as 256
